test: Human pharmacokinetic (PK) crossover study of caffeine versus d9-caffeine; plasma metabolites paraxanthine / paraxanthine-d6; type: in vivo; conditions: human, plasma, plasma metabolite, arithmetic mean; single dose 1.29 mmol caffeine (paraxanthine) or 1.29 mmol d9-caffeine (paraxanthine-d6), healthy adults
Provide the reported AUC(0-t) of each item.
Numbers only, in µM·h.

[
  {
    "Compound": "Cn1c(=O)[nH]c2ncn(C)c2c1=O [Paraxanthine, paraxanthine]",
    "Endpoint Unit": "µM·h",
    "AUC(0-t)": 122
  }
]

Would you kindly look at the next entry?
Consider the compound shown here: [2H]C([2H])([2H])n1c(=O)[nH]c2ncn(C([2H])([2H])[2H])c2c1=O [Paraxanthine-d6, paraxanthine-d6] What is its recorded AUC(0-t)?
110

====

Experiment: Pharmacokinetic (PK) study in Sprague-Dawley rats, plasma, oral (gavage) dose
Assay type: in vivo
Settings: rat; plasma; single oral (gavage) dose, fasted male Sprague Dawley rats, target dose 30 mg/kg (paraxanthine-d6 31 mg/kg, adjusted for MW)
Description: Two groups of fasted male Sprague-Dawley rats (12 animals per group) may be administered an oral single dose of paraxanthine in deionized water (Group 1) or paraxanthine-d6 (a compound of Formula (Ia)), in deionized water (Group 2) at a target dose level of 2 mg/kg. […] Plasma and brain samples may be analyzed for paraxanthine and paraxanthine-d6 (a compound of Formula (Ia)) concentration using a liquid chromatography-tandem mass spectrometry (LC-MS/MS) method. […]
Reported Endpoint: Tmax (min)
Numbers only, in min.

[
  {
    "Structure Smiles String": "[2H]C([2H])([2H])n1c(=O)[nH]c2ncn(C([2H])([2H])[2H])c2c1=O",
    "Tmax (min)": 30
  }
]

Would you kindly look at the next entry?
Consider the molecule shown here: "Cn1c(=O)[nH]c2ncn(C)c2c1=O" What is its recorded Tmax?
30

====

experiment: Human pharmacokinetic (PK) crossover study of caffeine versus d9-caffeine; plasma metabolites paraxanthine / paraxanthine-d6; assay type: in vivo; conditions: human, plasma, plasma metabolite, arithmetic mean; single dose 1.29 mmol caffeine (paraxanthine) or 1.29 mmol d9-caffeine (paraxanthine-d6), healthy adults
Reported Endpoint: Cmax (µM)
One number for each entry, in µM.

[
  {
    "Structure Smiles String": "[2H]C([2H])([2H])n1c(=O)[nH]c2ncn(C([2H])([2H])[2H])c2c1=O",
    "Cmax (µM)": 2.9
  }
]

Would you kindly look at the next entry?
Consider the compound shown here: "Cn1c(=O)[nH]c2ncn(C)c2c1=O" What is its recorded Cmax?
7.17

====

assay: Human pharmacokinetic (PK) crossover study of caffeine versus d9-caffeine; plasma metabolites paraxanthine / paraxanthine-d6; type: in vivo; conditions: human, plasma, plasma metabolite, arithmetic mean; single dose 0.26 mmol caffeine (paraxanthine) or 0.26 mmol d9-caffeine (paraxanthine-d6), healthy adults
Reported Endpoint: half-life (min)
One number for each entry, in min.

Consider the compound shown here: Cn1c(=O)[nH]c2ncn(C)c2c1=O [Paraxanthine, paraxanthine] What is its recorded half-life?
455

====

Provide the reported AUC(0-t) of each item.
Experiment: Human pharmacokinetic (PK) crossover study of caffeine versus d9-caffeine; plasma metabolites paraxanthine / paraxanthine-d6
Type: in vivo
Conditions: human, plasma, plasma metabolite, arithmetic mean; single dose 0.26 mmol caffeine (paraxanthine) or 0.26 mmol d9-caffeine (paraxanthine-d6), healthy adults
Experimental: A double-blind, randomized, two-part, two-period crossover study was conducted to evaluate the pharmacokinetics of caffeine versus d9-caffeine (depicted as compound 14 within U.S. Pat. No. 10,582,716, the disclosure of which is incorporated herein by reference) and their respective metabolites at two dose levels in 20 healthy adult volunteers. […] Plasma concentrations of parent and metabolites were analyzed using validated LC-MS/MS methods. […]
One number for each entry, in µM·h.

[
  {
    "Compound": "[2H]C([2H])([2H])n1c(=O)[nH]c2ncn(C([2H])([2H])[2H])c2c1=O [Paraxanthine-d6, paraxanthine-d6]",
    "Endpoint Unit": "µM·h",
    "Reported Result": 110
  }
]

Consider the compound shown here: Cn1c(=O)[nH]c2ncn(C)c2c1=O [Paraxanthine, paraxanthine] What is its recorded AUC(0-t)?
31.5
